- target-of-assay: KIT (recombinant, YEASEN 93764ES80) (UniProt P10721 26-524)
- Sequence (P10721 26-524): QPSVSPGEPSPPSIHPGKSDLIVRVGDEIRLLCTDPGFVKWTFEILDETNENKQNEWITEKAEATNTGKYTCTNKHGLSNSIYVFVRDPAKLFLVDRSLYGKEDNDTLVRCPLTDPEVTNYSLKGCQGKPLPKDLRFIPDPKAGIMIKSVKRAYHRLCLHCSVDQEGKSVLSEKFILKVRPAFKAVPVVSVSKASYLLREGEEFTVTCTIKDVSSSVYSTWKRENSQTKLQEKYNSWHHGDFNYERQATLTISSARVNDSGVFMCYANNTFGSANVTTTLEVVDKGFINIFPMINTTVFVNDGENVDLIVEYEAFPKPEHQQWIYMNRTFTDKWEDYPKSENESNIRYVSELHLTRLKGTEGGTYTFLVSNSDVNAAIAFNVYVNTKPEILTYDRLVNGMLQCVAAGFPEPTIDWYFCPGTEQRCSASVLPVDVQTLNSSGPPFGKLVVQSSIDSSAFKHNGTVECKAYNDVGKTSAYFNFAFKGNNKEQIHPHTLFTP
- method: SPR; KIT immobilized on CM5 chip; SPR at 25 C, His-KIT on CM5 chip, 50 mM NaOH regeneration; flow cytometry with 250 nM Cy5-aptamer in binding buffer with 1 mg/ml BSA and 1 mM yeast tRNA; salt and pH not given in material
- experimental-setup: protein: commercial; tags: His-tag; label: Cy5 in flow cytometry; predicted stem-loop
For each of the binders below, state its pKd.
Units for pKd: none; it is -log10 of a concentration expressed in mol/L.

Req: Can you share its pKd? I mean this binder: KIT-w (ssDNA) DNA: GAGGCATACCAGCTTATTCAAGGGGCCGGGGCAAGGGGGGGGTACCGTGGTAGGACATAGTAAGTGCAATCTGCGAA
Resp: 7.08

Req: Need pKd, item ATTCAAGGGGCCGGGGCAAGGGGGGGGTACCGTGGTAGGACATAGT (ssDNA) [KIT-d]
Resp: 7.15
